- protocol: chemical genetic growth profiling, strain panel (AID 1159580);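 also: tested at 20 µM; growth read once vehicle control cultures reached saturation at 30 °C; 1 = growth at the plate median or of vehicle wells; lower values mean less growth of the strain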
- measurement parameters: S. cerevisiae deletion strains, growth OD, locus YNL271C, strain bni1
The campaign covered roughly 5,500 compounds. About 2,000 (36%) were called active. About 18% were inconclusive and are not listed. Rule as the data show it: active = normalized growth mostly below about 0.91 (no sharp cut-off); inconclusive = no clear call, values can overlap the other calls; inactive = mostly above about 0.92. This is one part of the list.
Respond only with the outcome that fits, drawn from active, inactive

Worked examples follow.
Per the assay record, what outcome was assigned to CC(C1OC(C)(C)C(O)C1O)[C@@H]1CC[C@]2(C)C3=CCC4C(C)(C)C(=O)CC[C@]4(C)C3CC[C@@]12C (stereo partly drawn) ? inactive

Per the assay record, what outcome was assigned to CCc1cc(C(N)=S)ccn1 ? inactive

Per the assay record, what outcome was assigned to CCC(N)C(O)c1ccc(O)c(O)c1 (stereo not drawn) ? inactive

Per the assay record, what outcome was assigned to COc1cc(O)c2c(=O)c(O)c(-c3ccc(O)c(O)c3)oc2c1 ? inactive

Per the assay record, what outcome was assigned to C[C@@H]1CC[C@@]2(NC1)O[C@H]1C[C@H]3C4CC=C5C[C@@H](O)CC[C@]5(C)C4CC[C@]3(C)C1[C@@H]2C (stereo partly drawn) ? active

Per the assay record, what outcome was assigned to NC(=O)c1ncn([C@@H]2O[C@H](CO)[C@@H](O)[C@H]2O)n1 ? inactive

Per the assay record, what outcome was assigned to CCC/C=C1\OC(=O)C2=C1CCC=C2 ? inactive

Per the assay record, what outcome was assigned to NC(=O)NCCCC(N)C(=O)O (stereo not drawn) ? inactive

Continuing:
Per the assay record, what outcome was assigned to CC1CCC2(OC1)OC1CC3C4CC[C@H]5C[C@@H](O)CC[C@]5(C)C4CC(=O)[C@]3(C)C1C2C (stereo partly drawn) ? inactive

Per the assay record, what outcome was assigned to CC(C)[N+](C)(CCC(C(N)=O)(c1ccccc1)c1ccccc1)C(C)C ? inactive

Per the assay record, what outcome was assigned to CC1=CC(=O)C2=C(C)CC[C@@H]3[C@H](OC(=O)[C@H]3C)[C@@H]12 ? inactive

Per the assay record, what outcome was assigned to COc1cc(OC)c2c(=O)c(O)c(-c3ccc(OC)c(OC)c3)oc2c1 ? inactive

Per the assay record, what outcome was assigned to COc1ccc2c3c1OC1C(O)CC=C4C(C2)N(C)CCC431 (stereo not drawn) ? inactive

Per the assay record, what outcome was assigned to CO[C@@]1(NC(=O)C(C(=O)O)c2ccc(O)cc2)C(=O)N2C(C(=O)O)=C(CSc3nnnn3C)CO[C@@H]21 (stereo partly drawn) ? inactive

Per the assay record, what outcome was assigned to Cc1cc(OC(=O)c2c(C)cc(O)cc2O)cc(O)c1C(=O)O ? inactive

Per the assay record, what outcome was assigned to CC1CC[C@@]2(OC1)O[C@H]1CC3C4CC[C@@H]5CC(=O)CC[C@]5(C)C4CC[C@]3(C)[C@H]1[C@@H]2C (stereo partly drawn) ? inactive

Per the assay record, what outcome was assigned to C=C(C)[C@H]1COc2cc3oc(=O)ccc3cc2O1 ? active

Per the assay record, what outcome was assigned to CC(=O)OCC1=C(C(=O)O)N2C(=O)[C@@H](NC(=O)Cc3cccs3)[C@H]2SC1 ? inactive

Per the assay record, what outcome was assigned to C[C@@H]([C@H](O)c1ccccc1)N(C)C ? inactive

Per the assay record, what outcome was assigned to CCCC(C)(COC(N)=O)COC(=O)NC(C)C (stereo not drawn) ? inactive

Per the assay record, what outcome was assigned to NC(=NCCC[C@H](N)C(=O)O)N[N+](=O)[O-] ? inactive

* * *

- protocol: chemical genetic growth profiling, strain panel (AID 1159580);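 also: tested at 20 µM; growth read once vehicle control cultures reached saturation at 30 °C; 1 = growth at the plate median or of vehicle wells; lower values mean less growth of the strain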
- measurement parameters: S. cerevisiae deletion strains, growth OD, locus YGR078C, strain PAC10, hits give low values
Out of some 5,500 compounds screened, about 2,000 (36%) were called active. Inconclusive results (about 18%) are left out. The list shows a part of the results.
measurement type: normalized growth
Answer with a number only.

Value of measured normalized growth for the entry C[C@@H]([C@H](O)c1ccccc1)N(C)C : 1.02

Value of measured normalized growth for the entry CNC(C)C(O)c1ccccc1 (centres undefined) : 1.01

Value of measured normalized growth for the entry CC(C)c1c(O)c(-c2cc3c(c(C(C)C)c2O)CCC2C(C)(C)CCC[C@]32C)cc2c1CCC1C(C)(C)CCC[C@]21C (some centres undefined) : 1.01

Value of measured normalized growth for the entry CO[C@@]1(NC(=O)C(C(=O)O)c2ccc(O)cc2)C(=O)N2C(C(=O)O)=C(CSc3nnnn3C)CO[C@@H]21 (some centres undefined) : 1.02

Value of measured normalized growth for the entry CCCn1c(=O)c2[nH]c(C3CCCC3)nc2n(CCCOC(=O)c2ccc(S(=O)(=O)F)cc2)c1=O : 1.02

Continuing:
Value of measured normalized growth for the entry COC(=O)C1OC(=O)C2OC23C1(C)CCC1C2(C)C(OC(C)=O)CC(OC(C)=O)C(C)(C)C2CC(=O)C13C (centres undefined) : 1

Value of measured normalized growth for the entry CC1CCC2(OC1)OC1CC3C4CC[C@H]5C[C@@H](O)CC[C@]5(C)C4CC(=O)[C@]3(C)C1C2C (some centres undefined) : 0.989

Value of measured normalized growth for the entry COc1cc2c(cc1O)CC[C@@H]1[C@@H]2CC[C@]2(C)[C@@H](O)CC[C@@H]12 : 1

Value of measured normalized growth for the entry C[C@]12CCC3c4ccc(OS(=O)(=O)O)cc4CCC3C1CC[C@H]2O (some centres undefined) : 1.01

Value of measured normalized growth for the entry CC(=O)O[C@@H]1CC2C(C)(C)C(=O)C=C[C@]2(C)C2CC[C@@]3(C)[C@H](c4ccoc4)OC(=O)[C@H]4O[C@]43[C@@]21C (some centres undefined) : 1.01

Value of measured normalized growth for the entry CCCCOc1cc(C(=O)NCCN(CC)CC)c2ccccc2n1 : 1

Value of measured normalized growth for the entry CCOC(=O)C1C(c2cccnc2)C(C(=O)OCC)C(O)(C(F)(F)F)NC1(O)C(F)(F)F (centres undefined) : 1.01

Value of measured normalized growth for the entry N#C/C(=C\c1ccc(O)c(O)c1)C(=O)NCc1ccccc1 : 1.01

Value of measured normalized growth for the entry COc1ccc2c(c1C(C)C)CCC1C(C)(C)C(=O)CCC21C (centres undefined) : 1

* * *

Reported values of normalized growth for individual entries
- protocol: chemical genetic growth profiling, strain panel (AID 1159580);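 also: tested at 20 µM; growth read once vehicle control cultures reached saturation at 30 °C; 1 = growth at the plate median or of vehicle wells; lower values mean less growth of the strain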
- measurement parameters: S. cerevisiae deletion strains, growth OD, locus YKR026C, strain gcn3, hits give low values
Among all 5,500 compounds or so, about 2,000 (36%) were called active. Inconclusive results (about 18%) are left out. The list shows a part of the results.
Answer with a number only.

Worked set:
Value of measured normalized growth for the entry C[C@@H]1O[C@@H](OC[C@H]2OC(Oc3c(-c4ccc(OCCO)c(OCCO)c4)oc4cc(OCCO)cc(O)c4c3=O)[C@H](O)[C@@H](O)[C@@H]2O)[C@H](O)[C@H](O)[C@H]1O (stereo partly drawn) : 0.946

Value of measured normalized growth for the entry CC(=O)O[C@@H]1CC2C(C)(C)C(=O)C=C[C@]2(C)C2CC[C@@]3(C)[C@H](c4ccoc4)OC(=O)[C@H]4O[C@]43[C@@]21C (stereo partly drawn) : 0.985

From here, focus on the item given below.
Value of measured normalized growth for the entry C[N+](C)(C)CC(O)CC(=O)O (stereo not drawn) : 0.98

* * *

- protocol: chemical genetic growth profiling, strain panel (AID 1159580);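 also: tested at 20 µM; growth read once vehicle control cultures reached saturation at 30 °C; 1 = growth at the plate median or of vehicle wells; lower values mean less growth of the strain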
- measurement parameters: S. cerevisiae deletion strains, growth OD, locus YNL071W, strain lat1
Among all 5,500 compounds or so, about 2,000 (36%) were called active. Not shown: some 18% with an inconclusive outcome. No stated cut-off is given here; in the data, active means normalized growth mostly below about 0.91 (no sharp cut-off); inconclusive means no clear call, values can overlap the other calls; inactive means mostly above about 0.92. The list shows a part of the results.
Respond only with the outcome that fits, drawn from 1 = active, -1 = inactive

Worked examples follow.
Per the assay record, what outcome was assigned to C=CC1C2=CCOC(=O)C2=COC1OC1OC(CO)C(O)C(O)C1O (configuration not stated) ? -1

Per the assay record, what outcome was assigned to COc1ccccc1/C=C\C(=O)O ? -1

Continuing:
Per the assay record, what outcome was assigned to O=C(O[C@@H]1Cc2c(O)cc(O)cc2O[C@@H]1c1cc(O)c(=O)c2c(O)c(O)cc([C@H]3Oc4cc(O)cc(O)c4C[C@H]3OC(=O)c3cc(O)c(O)c(O)c3)c2c1)c1cc(O)c(O)c(O)c1 ? 1

Per the assay record, what outcome was assigned to CCN[C@@H]1C[C@H](N)[C@@H](O[C@H]2OC(CN)=CC[C@H]2N)[C@H](O)[C@H]1OC1OC[C@](C)(O)[C@H](NC)[C@H]1O (some centres not stated) ? -1

Per the assay record, what outcome was assigned to C=C1CCC2(OC1)OC1CC3C4CC=C5CC(O)CC(O)C5(C)C4CCC3(C)C1C2C (configuration not stated) ? 1

Per the assay record, what outcome was assigned to O=c1c(O)c(-c2ccc(O)c(O)c2)oc2c(O)c(O)cc(O)c12 ? -1

Per the assay record, what outcome was assigned to C=C(C)[C@H]1COc2cc3oc(=O)ccc3cc2O1 ? 1

Per the assay record, what outcome was assigned to OCC(O)C(O)C(O)C(O)C(O)CO (configuration not stated) ? -1

Per the assay record, what outcome was assigned to O=C(Cc1cccs1)NC1C(=O)N2C(C(=O)[O-])=C(C[n+]3ccccc3)CSC12 (configuration not stated) ? -1

Per the assay record, what outcome was assigned to CN[C@@H]1C(O)[C@@H](O[C@@H]2[C@@H](O)[C@H](O[C@H]3OC(CN)=CC[C@H]3N)[C@@H](N)C[C@H]2N)OC[C@]1(C)O (some centres not stated) ? -1

Per the assay record, what outcome was assigned to C[C@@H]1CC[C@@]2(OC1)OC1CC3C4CC=C5C[C@@H](O)CC[C@]5(C)C4CC[C@]3(C)C1[C@@H]2C (some centres not stated) ? -1

Per the assay record, what outcome was assigned to COc1ccc(Cl)cc1C(=O)NCCc1ccc(S(=O)(=O)NC(=O)NC2CCCCC2)cc1 ? -1

Per the assay record, what outcome was assigned to CN1C[C@H](C(=O)N[C@]2(C)O[C@@]3(O)[C@@H]4CCCN4C(=O)[C@H](Cc4ccccc4)N3C2=O)C[C@@H]2c3cccc4[nH]cc(c34)C[C@H]21 ? -1

Per the assay record, what outcome was assigned to CCCC(C)(COC(N)=O)COC(=O)NC(C)C (configuration not stated) ? -1

Per the assay record, what outcome was assigned to Cc1cc(OC(=O)c2c(C)cc(O)cc2O)cc(O)c1C(=O)O ? -1

Per the assay record, what outcome was assigned to C[C@@H]1CC[C@@]2(OC1)O[C@H]1CC3C4CC[C@H]5C[C@@H](O)CC[C@]5(C)C4CC[C@]3(C)[C@H]1[C@@H]2C (some centres not stated) ? -1

Per the assay record, what outcome was assigned to CN(C)c1ccc2nc3ccc(=[N+](C)C)cc-3sc2c1 ? -1

Per the assay record, what outcome was assigned to CC(C)[N+](C)(CCC(C(N)=O)(c1ccccc1)c1ccccc1)C(C)C ? -1

Per the assay record, what outcome was assigned to CC(CC(C(N)=O)(c1ccccc1)c1ccccc1)N(C)C (configuration not stated) ? -1

Per the assay record, what outcome was assigned to CCC1OC(=O)[C@H](C)C(=O)[C@H](C)[C@@H](OC2O[C@H](C)C[C@H](N(C)C)[C@H]2O)[C@](C)(OC)C2(CCCn3cnc(-c4cccnc4)c3)C[C@@H](C)C(=O)[C@H](C)[C@H]3N(C2)C(=O)O[C@]13C (some centres not stated) ? -1

From: PubChem BioAssay AID1159580
